Molecular target: T1, human GIP receptor (human, UniProt P48546 22-466)
T1 sequence (looked up): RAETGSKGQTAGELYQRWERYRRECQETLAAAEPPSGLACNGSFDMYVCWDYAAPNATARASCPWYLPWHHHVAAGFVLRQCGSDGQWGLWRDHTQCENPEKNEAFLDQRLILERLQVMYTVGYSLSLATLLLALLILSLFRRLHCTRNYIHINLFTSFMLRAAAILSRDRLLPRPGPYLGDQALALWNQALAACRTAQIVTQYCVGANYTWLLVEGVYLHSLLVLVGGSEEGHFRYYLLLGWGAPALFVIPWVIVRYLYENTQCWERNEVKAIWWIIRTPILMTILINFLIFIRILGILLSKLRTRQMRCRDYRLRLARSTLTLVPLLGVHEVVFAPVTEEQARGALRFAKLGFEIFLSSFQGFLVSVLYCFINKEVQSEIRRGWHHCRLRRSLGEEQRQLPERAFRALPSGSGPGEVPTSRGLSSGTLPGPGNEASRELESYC
Test: cell-based or functional assay
Below, each entry is listed with its recorded cAMP EC50, Batch 3.
Give just the number in pM; leave the unit off.

Would you please look over these solved cases?
- IP296 (Fc fusion) YSEGTFTSDYSKLLEEEAVRCFIEWLVKGGPSSGAPPCSGGGGGGGGGGGGGGGGGGGGGGGGACPPC: 14
- IP295 (Fc fusion) YSEGTFTSDYSKLLEEEAVRLFIEWLLAGGPSSGAPPPSGGGGGSGGGGSGGGGSGGGGSATHTCPPC: 8.6
- IP243 (Fc fusion) YSEGTFTSDYSKLLEEEAQRLFIEWLVKGPAAAGGSGSTASSGSGSATGGGGAATHTCPPCPAPEF: 7.2

Exercise: Which measured cAMP EC50, Batch 3 value corresponds to IP280 (Fc fusion) YSEGTFTSDYSKLLEEEAVRLFIEWLVKGGPSSGAPPPSGGGGGSGGGGSGGGGSGGGGSATHTCPPC ?
Key: 6.4
